Recorded values, source patent US20240067748A1.

- system.tested: T1, human Trop2 on cells (human, UniProt P09758 27-323)
- T1 construct: whole, on cells; also called hTrop2; 293T-human Trop2 cells
- T1 sequence (looked up): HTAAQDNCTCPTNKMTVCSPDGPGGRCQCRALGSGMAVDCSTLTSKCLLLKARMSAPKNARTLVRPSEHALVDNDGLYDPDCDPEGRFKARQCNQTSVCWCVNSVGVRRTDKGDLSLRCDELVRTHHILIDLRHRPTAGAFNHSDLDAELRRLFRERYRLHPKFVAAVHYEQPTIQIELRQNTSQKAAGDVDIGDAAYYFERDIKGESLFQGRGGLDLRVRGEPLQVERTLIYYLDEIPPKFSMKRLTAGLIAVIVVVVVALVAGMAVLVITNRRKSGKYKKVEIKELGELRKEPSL
- assay: flow cytometry on 293T-human Trop2 cells
Listed here are binders together with their documented Top %.

binder | Top % (%)
PR001170 (antibody, human IgG1, kappa, V domains shown, fully human IgG1/kappa; also called antibody No. (29)) VH: QVQLQESGPGLVKPSETLSLTCAVSGYSINSGYFWAWIRQPPGMGLEWIGSIYHSGRTHYNPSLKSRVIISLDTSKNQFSLKLRSVTAADSAVYYCAREGYASGSYYWGQGTLVTVSS VL: EIVMTQSPATLSVSPGERATLSCRSSQSVNSYLAWFQQKPGQAPRLLIYDSSTRATGIPARFSGSGSGTEFTLTISSLQSEDFAFYFCQQYENWPLTFGGGTKVEIKR | 107
PR001128 (antibody, human IgG1, kappa, V domains shown, fully human IgG1/kappa; also called antibody No. (1)) VH: QVQLQESGPGLVKPSGTLSLTCAVSGGSISSSNWWSWVRQPPGKGLEWIGEIFHSGTTYYNPSLKSRVTILVDKSKNQFSLKLSSVTAADTAVYYCARDNTKSWDHFDHWGQGTLVTVSS VL: EIVLTQSPATLSLSPGERATLSCRASQSVGSYLAWYQQKPGQAPSLLIYDASNRATGIPARFSGSGSGTDFTLTISSLEPEDFAVYYCQQRTNWYTFGQGTKLEIKR | 106
PR001132 (antibody, human IgG1, kappa, V domains shown, fully human IgG1/kappa; also called antibody No. (4)) VH: QVELVESGGGVVQPGRSLRLSCGASGFTFSSYNMYWVRQAPGKGLEWVAGIWDDGNNKYYANSVKGRFTISRDNSKNTLYLQMNSLRTEDTALYYCAKDGWGSYGEYFQHWGQGTLVTVSS VL: DIQMTQSPSSLSASVGERVTITCRASQNINSYLSWYQQKPGKAPKLLIYAASSLQNGVPSRFSGSGSGTDFTLTISSLQPEDFATYYCQQSFSTPPITFGQGTRLEIKR | 107
